tgt: Rv2887 (Mycobacterium tuberculosis, UniProt P9WME9)
Sequence (P9WME9 whole entry): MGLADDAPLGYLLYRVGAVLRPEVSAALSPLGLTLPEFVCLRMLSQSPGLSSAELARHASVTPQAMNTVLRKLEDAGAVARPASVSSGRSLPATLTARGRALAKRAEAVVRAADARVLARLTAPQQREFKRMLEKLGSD
experiment notes: biochemical
List of pKd values.
Value format note: pKd is -log10 of concentration (mol/L); just state the number.

>>> recorded_measurement("CCCCOc1ccc2cc(CN3C(=O)CC[C@H]3C(=O)OC)c3cc(OC)c(OC)cc3c2c1")
3.60

Then there is this compound:
Quick one: pKd of COC(=O)[C@@H]1CCC(=O)N1Cc1cc2ccc(OC)cc2c2cc(OC)c(OC)cc12 ?
3.56
